The reported measurements were obtained from ChEMBL document CHEMBL1127563.

Molecular target: Sterol O-acyltransferase 1 (Rattus norvegicus) (UniProt O70536)
Sequence (O70536 whole entry): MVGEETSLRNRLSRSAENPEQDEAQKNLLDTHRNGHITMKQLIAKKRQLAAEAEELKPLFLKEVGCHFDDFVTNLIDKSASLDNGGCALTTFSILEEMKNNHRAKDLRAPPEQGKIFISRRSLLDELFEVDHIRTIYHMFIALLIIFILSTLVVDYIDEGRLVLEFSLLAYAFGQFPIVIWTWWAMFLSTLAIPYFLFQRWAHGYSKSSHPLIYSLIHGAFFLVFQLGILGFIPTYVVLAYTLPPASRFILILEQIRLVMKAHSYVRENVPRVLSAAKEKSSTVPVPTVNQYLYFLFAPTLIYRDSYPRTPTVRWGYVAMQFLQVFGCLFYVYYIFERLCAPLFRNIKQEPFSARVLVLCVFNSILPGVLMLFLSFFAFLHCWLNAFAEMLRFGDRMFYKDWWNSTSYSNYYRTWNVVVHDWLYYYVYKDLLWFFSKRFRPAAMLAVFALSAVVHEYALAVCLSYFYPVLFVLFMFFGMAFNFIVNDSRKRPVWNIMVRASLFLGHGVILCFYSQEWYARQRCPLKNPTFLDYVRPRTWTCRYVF
Assay: Inhibitory activity against acyl coenzyme A:cholesterol acyltransferase at 10 e-6 M in rat microsomes
Conditions: Microsome
MEASURE NAME: inhibition (%)

Cc1ccccc1-c1c(NC(=O)Nc2ccc(F)cc2F)cnc2ccc(Cl)cc12    97.2
Cc1ccc(-c2c(NC(=O)Nc3ccc(F)cc3F)cnc3ccc(Cl)cc23)cc1    87.4
O=C(Nc1ccc(F)cc1F)Nc1cnc2ccc(Cl)cc2c1-c1ccccc1Cl    98
O=C(Nc1ccccc1F)Nc1cnc2ccc(Cl)cc2c1-c1ccccc1    75
Cc1cc(C)c2ncc(NC(=O)Nc3ccc(F)cc3F)c(-c3ccccc3Cl)c2c1    98.9
CC(C)c1ccc2ncc(NC(=O)Nc3ccc(F)cc3F)c(-c3ccccc3Cl)c2c1    99.3
Cc1cccc2ncc(NC(=O)Nc3ccc(F)cc3F)c(-c3ccccc3Cl)c12    87.3
Cc1ccc2ncc(NC(=O)Nc3ccc(F)cc3F)c(-c3ccccc3C)c2c1    96.9
O=C(Nc1ccc(F)cc1F)Nc1cnc2ccc(Br)cc2c1-c1ccccc1    85.5
O=C(Nc1ccc(F)cc1F)Nc1cnc2ccc(C(F)(F)F)cc2c1-c1ccccc1    90.1

====

Target: Sterol O-acyltransferase 1 (Rattus norvegicus)
Test: Inhibitory activity against acyl coenzyme A:cholesterol acyltransferase at 10 e-6 M in rat microsomes
Conditions: Microsome
MEASURE NAME: inhibition (%)

Here are 5 molecules together with their reported answers.
Cc1cc(C)c2nc(C)c(NC(=O)Nc3ccc(F)cc3F)c(-c3ccccc3Cl)c2c1    85.4
Cc1cc2ncc(NC(=O)Nc3ccc(F)cc3F)c(-c3ccccc3Cl)c2cc1C    99.6
Cc1cc2c(-c3ccccc3C)c(NC(=O)Nc3ccc(F)cc3F)cnc2cc1Cl    98.6
Cc1cc(C)c2ncc(NC(=O)Nc3ccc(F)cc3F)c(-c3ccccc3C)c2c1    98.5
Cc1cc(C)c2ncc(NC(=O)Nc3c(F)cc(F)cc3F)c(-c3ccccc3Cl)c2c1    97.3

(1) Cc1ccc2ncc(NC(=O)Nc3ccc(F)cc3F)c(-c3ccccc3)c2c1
(2) COc1ccc(NC(=O)Nc2cnc3ccc(Cl)cc3c2-c2ccccc2)c(OC)c1
*Q* Lab log: flag the item ( 1 or 2 ) with the smaller inhibition figure. Returns: label corresponding to the selected item.
*A* 2

(A) Cc1cc(Cl)c2ncc(NC(=O)Nc3ccc(F)cc3F)c(-c3ccccc3Cl)c2c1
(B) O=C(Nc1ccc(F)cc1)Nc1cnc2ccc(Cl)cc2c1-c1ccccc1
(C) O=C(Nc1ccccc1)Nc1cnc2ccc(Cl)cc2c1-c1ccccc1
*Q* Put the entries in order of inhibition, starting with the largest number. Answer by writing out the labels in the requested order.
*A* A, B, C
(A: 97.6%, B: 66.5%, C: 5%)

====

Target: Sterol O-acyltransferase 1 (Rattus norvegicus, UniProt O70536)
Sequence (O70536 whole entry): as above
MEASURE NAME: IC50 (nM)

CCc1ccc2ncc(NC(=O)Nc3ccc(F)cc3F)c(-c3ccccc3Cl)c2c1    14

(P) O=C(Nc1ccc(F)cc1F)Nc1cnc2ccc(Cl)cc2c1-c1cccc(Cl)c1
(Q) O=C(Nc1ccc(F)cc1F)Nc1cnc2ccc(Cl)cc2c1-c1ccc(Cl)cc1
*Q* Given the listed items, does P or Q have the lesser reported IC50? Label of pick, please.
*A* P

(a) COc1ccc(-c2c(NC(=O)Nc3ccc(F)cc3F)cnc3ccc(Cl)cc23)cc1
(b) O=C(Nc1ccc(F)cc1)Nc1cnc2ccc(Cl)cc2c1-c1ccccc1
*Q* Hey, which is lower on measured IC50, a or b ? Could you answer with the label of the item you picked?
*A* a

(1) COc1ccccc1-c1c(NC(=O)Nc2ccc(F)cc2F)cnc2ccc(Cl)cc12
(2) COc1ccc(NC(=O)Nc2cnc3ccc(Cl)cc3c2-c2ccccc2)c(OC)c1
*Q* From the recorded data, which exceeds the other in IC50: 1 or 2 ? Refer to your chosen item by its label in the answer.
*A* 2
